target: KRas G12D (Homo sapiens, UniProt P01116, G12D); experiment: biochemical; details: Binding to KRas (IC50 nM) G12D, TR-FRET displacement, KRas G12D
Sequence (P01116 1-169 isoform P01116-2 G12D): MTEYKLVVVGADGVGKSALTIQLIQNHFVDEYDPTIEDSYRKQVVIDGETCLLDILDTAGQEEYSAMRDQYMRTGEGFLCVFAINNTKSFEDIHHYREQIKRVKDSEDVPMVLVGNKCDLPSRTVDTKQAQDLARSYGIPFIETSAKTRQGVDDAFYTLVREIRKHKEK
ENDPOINT: IC50 (nM)

1. CCc1c(F)ccc2cc(O)cc(N3CCc4c(nc(OC[C@@]56CCCN5C[C@H](F)C6)nc4N4CCCC5(C4)NC(=O)NC5=S)C3)c12 (some centres unmarked) [Example 250] :: 19
2. CCc1c(F)ccc2cc(O)cc(N3CCc4c(nc(OC[C@@]56CCCN5C[C@H](F)C6)nc4N4CCCC(O)(C(N)=O)C4)C3)c12 (some centres unmarked) [Example 368] :: 10

---

biological target: KRas G12D (Homo sapiens, UniProt P01116, G12D); assay: biochemical; conditions: Binding to KRas (IC50 nM) G12D, TR-FRET displacement, KRas G12D
Each item that follows carries a reported IC50.
ENDPOINT: IC50 (nM)

1) CCc1c(F)ccc2cc(O)cc(N3CCc4c(nc(OC[C@@]56CCCN5C[C@H](F)C6)nc4N4Cc5cn(C(=O)N(C)C)nc5CC(C)C4)C3)c12 (stereo partly drawn) [Example 422] :: 2
2) CCc1c(F)ccc2cc(O)cc(N3CCc4c(nc(OC[C@@]56CCCN5C[C@H](F)C6)nc4N4C[C@@H]5C[C@H](C4)[C@H](O)C5)C3)c12 [Example 585B] :: 3
3) CCc1c(F)ccc2cc(O)cc(N3CCc4c(nc(OC[C@@]56CCCN5C[C@H](F)C6)nc4N4CCCn5nc(C(=O)N6CC7CCC6CC7)cc5C4)C3)c12 [Example 339] :: 2
4) CCc1c(F)ccc2cc(O)cc(N3CCc4c(nc(OC[C@@]56CCCN5C[C@H](F)C6)nc4N4CCCCC(COCC(=O)N(C)C)C4)C3)c12 (stereo partly drawn) [Example 251] :: 7

---

Measured inhibition at 0.01 µM by item
biological target: KRas G12A (Homo sapiens, UniProt P01116, G12A); type: binding; conditions: single point, 10 nM compound, read-out: Binding to KRas (% inhibition at 10 nM) G12A
Sequence (P01116 1-169 isoform P01116-2 G12A): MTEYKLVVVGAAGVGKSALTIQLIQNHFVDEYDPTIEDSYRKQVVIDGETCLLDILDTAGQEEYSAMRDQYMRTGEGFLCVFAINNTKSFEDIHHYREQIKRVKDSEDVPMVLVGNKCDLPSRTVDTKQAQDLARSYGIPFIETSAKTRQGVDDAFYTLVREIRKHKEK
ENDPOINT: inhibition at 0.01 µM (%)

1) CCc1c(F)ccc2cc(O)cc(N3CCc4c(nc(OC[C@@]56CCCN5C[C@H](F)C6)nc4N4CCCn5nnc(Br)c5C4)C3)c12 :: 88
2) CCc1c(F)ccc2cc(O)cc(N3CCc4c(nc(OC[C@@]56CCCN5C[C@H](F)C6)nc4N4CCCCn5nc(C(=O)N6CCOCC6)cc5C4)C3)c12 :: 98
3) CCc1c(F)ccc2cc(O)cc(N3CCc4c(nc(OC[C@@]56CCCN5C[C@H](F)C6)nc4N4CCCn5nc(C(=O)N(C)C6CC6)cc5C4)C3)c12 :: 96
4) CCc1c(F)ccc2cc(O)cc(N3CCc4c(nc(OC[C@@]56CCCN5C[C@H](F)C6)nc4N4CCCn5nc6c(c5C4)CCCN6)C3)c12 :: 56
5) CCc1c(F)ccc2cc(O)cc(N3CCc4c(nc(OC[C@@]56CCCN5C[C@H](F)C6)nc4N4CCCn5nc(C(=O)N6C7CCC6CC7)cc5C4)C3)c12 :: 97
6) CCc1c(F)ccc2cc(O)cc(N3CCc4c(nc(OC[C@@]56CCCN5C[C@H](F)C6)nc4N4CCCn5nc(C(=O)N6CC7CC6C7)cc5C4)C3)c12 :: 96
7) CCc1c(F)ccc2cc(O)cc(N3CCc4c(nc(OC[C@@]56CCCN5C[C@H](F)C6)nc4N4CCCn5nc6c(c5C4)CCCNC6=O)C3)c12 :: 100
8) CCc1c(F)ccc2cc(O)cc(N3CCc4c(nc(OC[C@@]56CCCN5C[C@H](F)C6)nc4N4CCCn5nc(C(=O)N(C)C)c(OC)c5C4)C3)c12 :: 97
9) CCc1c(F)ccc2cc(O)cc(N3CCc4c(nc(OC[C@@]56CCCN5C[C@H](F)C6)nc4N4CCCn5nc(C(=O)N6CC7COCC6C7)cc5C4)C3)c12 (stereo partly drawn) :: 96
10) CCc1c(F)ccc2cc(O)cc(N3CCc4c(nc(OC[C@@]56CCCN5C[C@H](F)C6)nc4N4CCCn5nc(CN(C)C(=O)N(C)C)cc5C4)C3)c12 :: 38
11) CCc1c(F)ccc2cc(O)cc(N3CCc4c(nc(OC[C@@]56CCCN5C[C@H](F)C6)nc4N4CCCn5nc(C(=O)NC6CC6)cc5C4)C3)c12 :: 91
12) CCNC(=O)c1nn2c(c1Cl)CN(c1nc(OC[C@@]34CCCN3C[C@H](F)C4)nc3c1CCN(c1cc(O)cc4ccc(F)c(CC)c14)C3)CCC2 :: 99
